# credit: patent US20110263539A1

System: MM cell lines
Assay Text: In vitro Multiple Myeloma (MM) assay (Assay 7); note: key: a ‘+’ indicates a positive result for desired activity; a ‘−’ indicates a negative result for desired activity
Assay type: cell-based
Experimental Readout: Assay Number 7: In vitro Multiple Myeloma (MM) assay

Use these answered entries as a reference point.
- Cc1cc2c(cc1O)C[C@@H]1[C@@]3(C)CCCC(C)(C)[C@@H]3CC[C@@]21C [Compound 101]: +
- Cc1cc(O)cc2c1[C@@]1(C)CCC3C(C)(C)CCC[C@]3(C)[C@H]1C2 (some centres unmarked) [Compound 125]: +
- COc1ccc2c(c1O)C[C@@H]1[C@@]3(C)CCCC(C)(C)[C@@H]3CC[C@@]21C [Compound 118]: +
- Cc1cc(O)c2c(c1)C[C@@H]1[C@@]3(C)CCCC(C)(C)[C@@H]3CC[C@@]21C [Compound 122]: +
- CC1(C)CCC[C@]2(C)[C@H]3Cc4cc(O)cc(O)c4[C@]3(C)CC[C@@H]12 [Compound 115]: +
- COc1cc(O)cc2c1[C@]1(C)CC[C@H]3C(C)(C)CCC[C@]3(C)[C@H]1C2 [Compound 117]: +
- Cc1cc(OP(=O)(O)O)cc2c1[C@]1(C)CCC3C(C)(C)CCC[C@]3(C)[C@H]1C2 (some centres unmarked) [Compound 109]: +
- Cc1cc(O)c(O)c2c1[C@]1(C)CCC3C(C)(C)CCC[C@]3(C)[C@H]1C2 (some centres unmarked) [AQX-016A]: +
- Cc1cc(O)cc2c1[C@]1(C)CCC3C(C)(C)CCC[C@]3(C)[C@H]1C2 (some centres unmarked) [Compound 100]: +
- Cc1cc(O)cc2c1[C@]1(C)CCC3C(C)(C)CCC[C@]3(C)[C@@H]1C2 (some centres unmarked) [Compound 124]: +

// moving on: another record for Assay Number 7: In vitro Multiple Myeloma (MM) assay
I have this molecule here, CC1(C)CCC[C@]2(C)[C@H]3Cc4cc(O)ccc4[C@]3(C)CC[C@@H]12 [Compound 121] , and I need its recorded Assay Number 7: In vitro Multiple Myeloma (MM) assay.
+
